molecular target: USP16-UBD (USP16 25-185) (Homo sapiens, UniProt Q9Y5T5); assay: biochemical; parameters: SPR, steady-state binding to immobilised biotinylated UBD proteins; conditions: read-out: SPR Kd µM (USP16)
Parameter measured: Kd

| Molecule | Result |
| --- | --- |
| O=C(O)CCc1nc2ccccc2c(=O)n1CC(=O)NCc1ccccc1 [UBXXML47] | 11 µM |
| COc1ccccc1CNC(=O)Cn1c(CCC(=O)O)nc2ccccc2c1=O [UBXXML264] | 13 µM |
| O=C(O)CCc1nc2ccccc2c(=O)n1CC(=O)NCC1CCCCC1 [UBXXML9098] | 4.8 µM |
| Cn1c(CCC(=O)O)nc2ccccc2c1=O [DATR31] | 130 µM |
| COc1ccccc1CNC(=O)Cn1c(CCC(=O)O)nc2c(F)cccc2c1=O [UBXXML299] | 11 µM |

---

target: USP16-UBD (USP16 25-185) (Homo sapiens, UniProt Q9Y5T5); assay: biochemical; design: SPR, steady-state binding to immobilised biotinylated UBD proteins; details: read-out: Negative Control KD (nM) SGC-UBD1031N
Parameter measured: Kd (nM)

| Molecule | Number |
| --- | --- |
| C[C@@H](NC(=O)Cn1c(CCC(=O)O)nc2c(Cl)cccc2c1=O)c1c(F)cccc1F [compound 16] | 1770 |

---

target: BRAP (Homo sapiens, UniProt Q7Z569); construct: UBD, residues 304-390; assay: biochemical; parameters: SPR, steady-state binding to immobilised biotinylated UBD proteins; conditions: read-out: Probe KD (nM) SGC-UBD1031
Sequence (Q7Z569 whole entry, the tested form may be a part): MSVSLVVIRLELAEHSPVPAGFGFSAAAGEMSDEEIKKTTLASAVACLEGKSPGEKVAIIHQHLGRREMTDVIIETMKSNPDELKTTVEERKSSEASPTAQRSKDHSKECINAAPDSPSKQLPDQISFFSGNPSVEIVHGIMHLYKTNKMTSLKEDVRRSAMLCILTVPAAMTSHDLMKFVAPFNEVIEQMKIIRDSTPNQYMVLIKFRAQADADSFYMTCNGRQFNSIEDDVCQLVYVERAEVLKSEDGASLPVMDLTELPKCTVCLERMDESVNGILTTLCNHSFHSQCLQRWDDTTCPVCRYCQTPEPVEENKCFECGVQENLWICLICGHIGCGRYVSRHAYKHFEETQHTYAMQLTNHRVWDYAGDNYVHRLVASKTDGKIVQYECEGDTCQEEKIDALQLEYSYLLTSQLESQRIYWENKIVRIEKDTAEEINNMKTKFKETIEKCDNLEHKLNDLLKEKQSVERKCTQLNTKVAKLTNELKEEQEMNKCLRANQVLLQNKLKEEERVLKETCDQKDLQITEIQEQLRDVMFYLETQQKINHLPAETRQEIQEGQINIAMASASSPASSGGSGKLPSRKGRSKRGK

| Compound string | Kd |
| --- | --- |
| C[C@H](NC(=O)Cn1c(CCC(=O)O)nc2c(Cl)cccc2c1=O)c1c(F)cccc1F | > 10000 nM |

---

target: USP51 (Homo sapiens, UniProt Q70EK9); construct: UBD, residues 176-305; test: biochemical; parameters: SPR, steady-state binding to immobilised biotinylated UBD proteins; settings: read-out: Probe KD (nM) SGC-UBD1031
Parameter measured: Kd

| Molecule | Test system | Result |
| --- | --- | --- |
| C[C@H](NC(=O)Cn1c(CCC(=O)O)nc2c(Cl)cccc2c1=O)c1c(F)cccc1F [compound 15] | USP51 (Homo sapiens, UniProt Q70EK9) | > 10000 nM |

---

Target: USP51 (Homo sapiens, UniProt Q70EK9)
Construct: UBD, residues 176-305
Sequence (Q70EK9 1-711): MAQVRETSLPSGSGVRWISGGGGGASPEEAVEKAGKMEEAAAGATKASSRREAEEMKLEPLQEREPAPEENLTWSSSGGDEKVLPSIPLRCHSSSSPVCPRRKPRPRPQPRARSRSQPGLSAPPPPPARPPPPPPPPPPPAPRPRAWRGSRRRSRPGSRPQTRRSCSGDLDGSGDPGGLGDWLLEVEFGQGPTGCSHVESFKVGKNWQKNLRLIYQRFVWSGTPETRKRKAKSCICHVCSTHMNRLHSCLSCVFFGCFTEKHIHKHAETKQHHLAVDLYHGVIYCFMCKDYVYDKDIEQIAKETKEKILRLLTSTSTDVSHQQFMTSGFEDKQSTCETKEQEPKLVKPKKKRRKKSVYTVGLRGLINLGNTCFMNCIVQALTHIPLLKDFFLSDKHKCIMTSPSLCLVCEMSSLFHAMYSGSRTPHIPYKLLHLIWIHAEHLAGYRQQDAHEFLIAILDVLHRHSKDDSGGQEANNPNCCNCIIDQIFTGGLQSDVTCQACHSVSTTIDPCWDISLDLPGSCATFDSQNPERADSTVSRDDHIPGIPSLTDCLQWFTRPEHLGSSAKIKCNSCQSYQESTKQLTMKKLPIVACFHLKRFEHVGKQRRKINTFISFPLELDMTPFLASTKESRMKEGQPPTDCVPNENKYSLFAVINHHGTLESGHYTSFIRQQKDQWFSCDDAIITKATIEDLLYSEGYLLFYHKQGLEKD
Experiment: biochemical
Set-up: SPR, steady-state binding to immobilised biotinylated UBD proteins
Conditions: read-out: Negative Control KD (nM) SGC-UBD1031N

| Compound string | Kd |
| --- | --- |
| C[C@@H](NC(=O)Cn1c(CCC(=O)O)nc2c(Cl)cccc2c1=O)c1c(F)cccc1F | > 10000 nM |

---

target: USP16-UBD (USP16 25-185) (Homo sapiens); test: SPR, steady state; format: binding
Kd reference
Parameter measured: Kd (µM)

| Compound | Parameter measured | Unit descriptor | Number |
| --- | --- | --- | --- |
| Cc1ccccc1CNC(=O)Cn1c(CCC(=O)O)nc2c(Cl)cccc2c1=O | Kd | µM | 1.8 |
| C[C@H](NC(=O)Cn1c(CCC(=O)O)nc2c(Cl)cccc2c1=O)c1ccccc1F | Kd | µM | 0.21 |
| COc1ccccc1C(C)NC(=O)Cn1c(CCC(=O)O)nc2c(Cl)cccc2c1=O (stereo not shown) | Kd | µM | 0.44 |
| O=C(O)CCc1nc2c(Cl)cccc2c(=O)n1CC(=O)NCC1CCCOC1 (stereo not shown) | Kd | µM | 7.8 |

---

molecular target: USP16-UBD (USP16 8-185) (Homo sapiens, UniProt Q9Y5T5)
Sequence (Q9Y5T5 8-185): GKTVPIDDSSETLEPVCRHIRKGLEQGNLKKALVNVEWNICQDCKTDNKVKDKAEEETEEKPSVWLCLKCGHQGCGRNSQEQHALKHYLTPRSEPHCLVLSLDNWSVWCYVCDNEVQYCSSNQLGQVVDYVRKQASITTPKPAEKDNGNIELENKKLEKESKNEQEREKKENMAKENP
pKd: −log10 of the molar value.
Parameter measured: pKd

| Molecule | Parameter measured | Number |
| --- | --- | --- |
| C[C@H](NC(=O)Cn1c(CCC(=O)O)nc2c(Cl)cccc2c1=O)c1c(F)cccc1F [compound 15] | pKd | 7.30 |
